# testSummary: Tissue distribution of 18F imaging agents in rats
# Type: in vivo, Male Sprague Dawley rats
# testSettings: rat, iv tail vein ~15 μCi, 15 min post injection, ± SEM
# Procedure: Anesthetized (sodium pentobarbital at 50 mg/kg, ip or isoflurane gas inhalation) Male Sprague Dawley rats (250-350 g) received an iv injection of the imaging agent (˜15 μCi) via the tail vein. […] All samples were then weighed and counted for radioactivity (Wallac Wizard 1480 or Packard Cobra II Autogamma); regional tissue uptake of the imaging agent was thus expressed as a percentage of the total injected dose per gram of tissue (% ID/g). […]
measurementKind: Brain, imaging agent distribution at 15 min (% ID/g)
Give the value in % ID/g but do not write % ID/g after it.

The examples below pair each entry with its known result.
molecule: Cc1c(OCc2ccc(COCCF)cc2)cnn(C(C)(C)C)c1=O [Example 67I]
testResult: 0.49

molecule: CC(C)(C)n1ncc(OCc2ccc([Si](F)(C(C)(C)C)C(C)(C)C)cc2)c(Cl)c1=O [Example 67N]
testResult: 0.03

molecule: CC(C)(C)n1ncc(OCc2ccc(Oc3cccnc3F)cc2)c(Cl)c1=O [Example 67O]
testResult: 0.36

molecule: CC(C)(C)n1ncc(OCc2cccc(OCCF)c2)c(Cl)c1=O [Example 67F]
testResult: 0.50

molecule: CC(C)(C)n1ncc(CCc2ccc(COCCF)cc2)c(Cl)c1=O [Example 67M]
testResult: 0.55

Requested field: Brain, imaging agent distribution at 15 min. Item: CC(C)(C)n1ncc(OCc2ccc(-c3cnc(F)nc3)cc2)c(Cl)c1=O [Example 67L]
0.30

Request the reported Brain, imaging agent distribution at 15 min associated with CC(C)(C)n1ncc(OCc2ccc(C#CCCF)cc2)c(Cl)c1=O [Example 67K]
0.36

---

// values below are reported Femur, imaging agent distribution at 15 min
# testSummary: Tissue distribution of 18F imaging agents in rats
# Assay type: in vivo, Male Sprague Dawley rats
# testSettings: rat, iv tail vein ~15 μCi, 15 min post injection, ± SEM
# Method: Anesthetized (sodium pentobarbital at 50 mg/kg, ip or isoflurane gas inhalation) Male Sprague Dawley rats (250-350 g) received an iv injection of the imaging agent (˜15 μCi) via the tail vein. […] All samples were then weighed and counted for radioactivity (Wallac Wizard 1480 or Packard Cobra II Autogamma); regional tissue uptake of the imaging agent was thus expressed as a percentage of the total injected dose per gram of tissue (% ID/g). […]
Respond with a number, then the unit of measure.

Here is how some molecules turned out for Femur, imaging agent distribution at 15 min.
molecule: CC(C)(C)n1ncc(OCc2ccc(OCCCF)c(Cl)c2)c(Cl)c1=O [Example 67C]
testResult: 0.33 ± 0.01 % ID/g
//
molecule: CC(C)(C)n1ncc(OCc2ccc(Oc3cccnc3F)cc2)c(Cl)c1=O [Example 67O]
testResult: 0.27 ± 0.02 % ID/g
//
molecule: CC(C)n1ncc(OCc2ccc(COCCF)cc2)c(Cl)c1=O [Example 67H]
testResult: 0.36 ± 0.04 % ID/g

Which value of Femur, imaging agent distribution at 15 min has been reported for Cc1c(OCc2ccc(COCCF)cc2)cnn(C(C)(C)C)c1=O [Example 67I] in the records?
0.28 ± 0.04 % ID/g

---

# testSummary: Tissue distribution of 18F imaging agents in rats
# Assay type: in vivo, Male Sprague Dawley rats
# testSettings: rat, iv tail vein ~15 μCi, 15 min post injection, ± SEM
Rule: measured Blood, imaging agent distribution at 15 min below 0.3 % ID/g gets label 1; anything equal to or greater than 0.3 % ID/g gets label 0.

compound: CC(C)(C)n1ncc(OCc2cccc(COCCF)c2)c(Cl)c1=O [Example 67A]
categoryLabel: label 1
//
compound: CC(C)(C)n1ncc(OCc2ccc(OCCF)cc2)c(Cl)c1=O [Example 67D]
categoryLabel: label 0
//
compound: CC(C)(C)n1ncc(OCc2ccc(OCCOCCF)cc2)c(Cl)c1=O [Example 67B]
categoryLabel: label 0
//
compound: CC(C)(C)n1ncc(OCc2ccc(OCCCF)c(Cl)c2)c(Cl)c1=O [Example 67C]
categoryLabel: label 1
//
compound: CC(OCCF)c1ccc(COc2cnn(C(C)(C)C)c(=O)c2Cl)cc1 (centres unmarked) [Example 67G]
categoryLabel: label 0

Dear colleague, could you confirm whether Blood, imaging agent distribution at 15 min of CC(C)(C)n1ncc(OCc2ccc(C#CCCF)cc2)c(Cl)c1=O [Example 67K] falls below 0.3 % ID/g? Thanks.
label 1

For this compound, is Blood, imaging agent distribution at 15 min lower than 0.3 % ID/g? CC(C)(C)n1ncc(OCc2cccc(OCCF)c2)c(Cl)c1=O [Example 67F]
label 0

Please state whether Blood, imaging agent distribution at 15 min is below 0.3 % ID/g for [2H]C([2H])(OCCF)c1ccc(COc2cnn(C(C)(C)C)c(=O)c2Cl)cc1 [Example 67E]
label 1
